meta.source: PubChem BioAssay (Tox21)

Target: Nuclear receptor subfamily 1 group I member 2 (Homo sapiens)
Experiment: Human pregnane X receptor (PXR) activation by small molecules, qHTS assay (AID 1346985); also: nearly all actives have a fitted effect of over 40% in size
Settings: DPX-2 HepG2 CYP3A4-luciferase, 24 h; series mostly up to 38.3 µM
Inconclusive results are not listed. The source made the active and inactive calls. Calls follow the shape of the dose curve; as a rule, active = well fitted activation curve with a large enough effect in the repeat runs; inconclusive = weak or mixed curves; inactive = flat fitted curve, though single readings scatter.
quantity measured: outcome

Sample records with outcome:
compound	result
C=CCSSSCC=C	inactive
C=C(NC(=O)C(=C)NC(=O)c1csc(C2=N[C@@H]3c4csc(n4)[C@H]4NC(=O)c5csc(n5)[C@H]([C@](C)(O)[C@@H](C)O)NC(=O)[C@H]5CSC(=N5)C(=CC)NC(=O)C([C@@H](C)O)NC(=O)c5csc(n5)[C@]3(CC2)NC(=O)[C@H](C)NC(=O)C(=C)NC(=O)[C@H](C)NC(=O)C([C@@H](C)CC)NC2C=Cc3c([C@H](C)O)cc(nc3C2O)C(=O)O[C@@H]4C)n1)C(N)=O (stereo not given in full)	inactive
CCC(=O)O[C@@H]1CC(=O)O[C@H](C)C/C=C/C=C/[C@H](O)[C@H](C)C[C@H](CC=O)[C@H](O[C@@H]2O[C@H](C)[C@@H](O[C@H]3C[C@@](C)(O)[C@@H](OC(=O)CC)[C@H](C)O3)[C@H](N(C)C)[C@H]2O)[C@H]1OC	inactive
CCCCC(C)(O)C/C=C/[C@H]1[C@H](O)CC(=O)[C@@H]1CCCCCCC(=O)OC (stereo not given in full)	inactive

Exercise: Fill in the recorded outcome for this compound, with Nuclear receptor subfamily 1 group I member 2 (Homo sapiens) as test system: CC(C)=CCC/C(C)=C/C=C/C(C)=C/C=C/C(C)=C/C=C/C=C(C)/C=C/C=C(C)/C=C/C=C(\C)CCC=C(C)C
Key: inactive

----------
Assay: qHTS assay to identify small molecule antagonists of the androgen receptor (AR) signaling pathway using the MDA cell line - cell viability counter screen (AID 743041; also: nearly all actives have a fitted effect of over 45% in size)
Conditions: MDA-kb2 viability, CellTiter-Fluor, 16 h, cells co-treated with R1881 androgen agonist; series mostly up to 70.3 µM
Inconclusive results are not listed. Activity calls are given as the source filed them. The call rests on the fitted dose curve; in most records, active means well fitted cell-killing curve with a large enough effect in the repeat runs; inconclusive means weak or mixed curves, or effect the other way; inactive means flat fitted curve, though single readings scatter. Positions of bridges follow the written chain, without caps; N, C: chain ends. Non-standard residues stand in square brackets, D forms with d. Residues, ends and D or L forms follow the SMILES beside them. Orn = NCCC[C@H](N)C(=O)O; Mpa = O=C(O)CCS
Give your call using only these classes: Yes (active), No (inactive)

Solved cases (6 shown):
molecule	label
CCCCCCCCCCCCCCCCCC[N+](C)(C)CCC[Si](OC)(OC)OC	No
O=C(OCCO)c1ccccc1O	No
CCN(CC)c1ccc(C(=C2C=CC(=[N+](CC)CC)C=C2)c2ccccc2)cc1	Yes
O=S(O)CNc1ccc(S(=O)(=O)c2ccc(NCS(=O)O)cc2)cc1	No
CC(C)=CCC/C(C)=C/C=C/C(C)=C/C=C/C(C)=C/C=C/C=C(C)/C=C/C=C(C)/C=C/C=C(\C)CCC=C(C)C	No
CN(C)CCOc1ccccc1Cc1ccccc1 (tested in a mixture with another compound)	No

Exercise: Recorded call for CO[C@H]1C[C@@H]2CC[C@@H](C)[C@@](O)(O2)C(=O)C(=O)N2CCCC[C@H]2C(=O)O[C@H]([C@H](C)C[C@@H]2CC[C@@H](OC(=O)C(C)(CO)CO)[C@H](OC)C2)CC(=O)[C@H](C)/C=C(\C)[C@@H](O)[C@@H](OC)C(=O)[C@H](C)C[C@H](C)/C=C/C=C/C=C/1C ?
Key: No

Exercise: Record lookup: outcome of this test for CCOC(=O)C1=C(COCCN)NC(C)=C(C(=O)OC)C1c1ccccc1Cl (stereo unspecified) ?
Key: No

Exercise: Entry CCOc1ccc(C[C@H]2NC(=O)CCSSC[C@@H](C(=O)N3CCC[C@H]3C(=O)N[C@@H](CCCN)C(=O)NCC(N)=O)NC(=O)[C@H](CC(N)=O)NC(=O)[C@H]([C@@H](C)O)NC(=O)[C@H]([C@@H](C)CC)NC2=O)cc1 ([Mpa][dY](Et)ITNCP[Orn]G-NH2; disulfide 1-6) : call = ?
Key: No

Exercise: In this assay, the call recorded for C=C[C@]1(C)C[C@@H](OC(=O)CO)[C@]2(C)[C@H](C)CC[C@]3(CCC(=O)[C@H]32)[C@@H](C)[C@@H]1O was what?
Key: No

Exercise: Could you please tell me the result logged for COc1c(O[C@@H]2O[C@H](CO)[C@@H](O)[C@H](O)[C@H]2O)cc2c(c1OC)-c1ccc(SC)c(=O)cc1[C@@H](NC(C)=O)CC2 in this assay?
Key: No

Exercise: Hello, I am checking results. What call was entered for O=C(O)c1nc(=O)[nH]c(=O)[nH]1 ?
Key: No

Exercise: Write down the call the test reported for this molecule. Item: COc1ccc2c(c1)N(C[C@H](C)CN(C)C)c1ccccc1S2
Key: No

Exercise: Assay result, entry COc1ccc(-c2noc(CC(=O)O)c2-c2ccc(OC)cc2)cc1 — outcome?
Key: No

Exercise: Which outcome was assigned to CCNC(=O)[C@@H]1CCCN1C(=O)[C@H](CCCN=C(N)N)NC(=O)[C@H](CC(C)C)NC(=O)[C@@H](Cc1c[nH]c2ccccc12)NC(=O)[C@H](Cc1ccc(O)cc1)NC(=O)[C@H](CO)NC(=O)[C@H](Cc1c[nH]c2ccccc12)NC(=O)[C@H](Cc1cnc[nH]1)NC(=O)[C@@H]1CCC(=O)N1 in this test?
Key: Yes

Exercise: What did this assay record as the result for NC(Cc1ccccc1)C(=O)O (stereo unspecified) ?
Key: No
